- Tested on: E. faecium ATCC19434
- ASSAY NOTES: MIC, agar plate dilution method, E. faecium ATCC19434
- Type: cell-based, Enterococcus faecium
- ASSAY CONTEXT: E. faecium ATCC19434
Outcome label depends on minimal inhibitory concentration (MIC) relative to 8 µg/mL: at/above gives y, below gives n.

compound="CN[C@@H]1[C@@H](O[C@H]2O[C@H](CO)[C@@H](N)[C@H](O)[C@H]2O)O[C@H]2C[C@@H](N)[C@@H](O[C@H]3[C@@H](F)[C@H](N)[C@H](N)C[C@@H]3N)O[C@@H]2[C@@H]1O [Compound F3]" class=y

Asked: Determine whether measured minimal inhibitory concentration (MIC) meets or exceeds 8 µg/mL for CNC1C(OC2OC(CO)C(N)C(O)C2O)OC2CC(N)C(OC3C(N)CC(N)C(O)C3O)OC2C1O (stereo not shown) [Compound I3, 2″,3″-diepiapramycin]
Given back: y

Asked: Say whether CN[C@@H]1[C@@H](O[C@H]2O[C@H](CO)[C@@H](N)[C@@H](O)[C@H]2O)O[C@H]2C[C@@H](N)[C@@H](O[C@H]3[C@@H](O)[C@@H](O)[C@H](N)C[C@@H]3N)O[C@@H]2[C@@H]1O [Compound P4, 5,3″-diepiapramycin] shows minimal inhibitory concentration (MIC) of 8 µg/mL or more.
Given back: y

Asked: Item CNC1C(OC2OC(CO)C(NC(=N)N)CC2O)OC2CC(N)C(OC3CC(O)C(N)CC3N)OC2C1O (stereo not shown) [Compound U4-a] with minimal inhibitory concentration (MIC) of 8 µg/mL or above?
Given back: n

Asked: Determine whether this compound has minimal inhibitory concentration (MIC) no lower than 8 µg/mL: CN[C@@H]1[C@@H](O[C@H]2O[C@H](CO)[C@@H](NC(=O)[C@H](N)CO)[C@H](O)[C@H]2O)O[C@H]2C[C@@H](N)[C@@H](O[C@H]3[C@H](O)[C@@H](O)[C@H](N)C[C@@H]3N)O[C@@H]2[C@@H]1O [Compound V1-f, 4″-N-(D-seryl)apramycin]
Given back: y

Asked: Say whether CN[C@@H]1[C@@H](O[C@H]2O[C@H](CO)[C@@H](N)C[C@H]2O)O[C@H]2C[C@@H](N)[C@@H](O[C@H]3C[C@@H](O)[C@H](N)C[C@@H]3N)O[C@@H]2[C@@H]1O [Compound M7, 5,3″-dideoxyapramycin] shows minimal inhibitory concentration (MIC) of 8 µg/mL or more.
Given back: y

Asked: Would you say CNC1C(O[C@H]2OC(CO)[C@@H](NC)[C@H](O)C2O)O[C@H]2CC(N)[C@@H](O[C@@H]3C(N)C[C@@H](N)C(O)[C@H]3O)OC2C1O (stereo partly drawn) [Compound S1-f, 5-epi-4″-N-methylapramycin] shows minimal inhibitory concentration (MIC) at minimum 8 µg/mL?
Given back: y

Asked: Kindly determine if minimal inhibitory concentration (MIC) recorded for CN[C@@H]1[C@@H](O[C@H]2O[C@H](CO)[C@@H](NC(CN)CN)[C@H](O)[C@H]2O)O[C@H]2C[C@@H](N)[C@@H](O[C@H]3[C@@H](O)[C@@H](O)[C@H](N)C[C@@H]3N)O[C@@H]2[C@@H]1O [Compound S1-i] is above or exactly 8 µg/mL.
Given back: n

---

Listed below: minimal inhibitory concentration (MIC) values for each entry.
- Test system: E. faecium ATCC19434
- ASSAY NOTES: MIC, agar plate dilution method, E. faecium ATCC19434
- Assay type: cell-based, Enterococcus faecium
- ASSAY CONTEXT: E. faecium ATCC19434
Provide only the numeric value, understood in µg/mL.

Asked: Which measured minimal inhibitory concentration (MIC) value corresponds to CNC1C(OC2OC(CO)C(NC(=N)N)CC2O)OC2CC(N)C(OC3C(N)CC(N)C(O)C3O)OC2C1O (stereo not shown) [Compound X4-a] ?
Given back: 8

Asked: For the compound CNC1C(CO)OC(OC2OC3CC(N)C(OC4C(N)CC(N)CC4O)OC3C(O)C2NC)C(O)C1O (stereo not drawn) [Compound S1-l, 6-deoxy-5-epi-4″-N-methylapramycin] , what minimal inhibitory concentration (MIC) is on record?
Given back: 16

Asked: I'd like to know its minimal inhibitory concentration (MIC). The compound in question is CNC1C(OC2OC(CO)C(N)C(O)C2O)OC2CC(N)C(OC3C(N)CC(N)C(O)C3N)OC2C1O (stereo not shown) [Compound D2, 5-amino-5-deoxy-5-epiapramycin]
Given back: 32

Asked: Item under review: CN[C@@H]1[C@@H](O[C@H]2O[C@H](CO)[C@@H](N)[C@H](O)[C@H]2O)O[C@H]2C[C@@H](N)[C@@H](O[C@@H]3[C@@H](N)C[C@@H](N)C[C@@H]3O)O[C@@H]2[C@@H]1O [Compound C6, 6-deoxy-5-epiapramycin] . Reported minimal inhibitory concentration (MIC)?
Given back: 16

Asked: Recorded minimal inhibitory concentration (MIC) of CNC1C(OC2OC(CO)C(N)CC2O)OC2CC(N)C(OC3CCC(N)CC3N)OC2C1O (stereo not shown) [Compound N7, 5,6,3″-trideoxyapramycin] , please.
Given back: 16

Asked: What measured minimal inhibitory concentration (MIC) goes with CNC1C(OC2OC(CO)C(N)C(O)C2O)OC2CC(N)C(OC3C(N)CC(N)CC3F)OC2C1O (stereo not shown) [Compound C8, 5,6-dideoxy-5-fluoroapramycin] ?
Given back: 16

Asked: Which minimal inhibitory concentration (MIC) value is on record for CNC1C(CO)OC(OC2OC3CC(N)C(OC4C(N)CC(N)C(O)C4O)OC3C(O)C2NC)C(O)C1O (stereo not shown) [Compound A4-a, 4″-N-methylapramycin] ?
Given back: 32
